Target: receptor-binding domain (RBD) of the SARS-COV-2 spike (S) protein (SARS-COV-2, UniProt P0DTC2 319-541)
Assay: On-yeast EC50
Quantity kind: pEC50
The meaning of pEC50 here: minus log10 of the concentration in molar units.

Prompt: Please give the measured pEC50 for this binder: RBD9 (VHH) VHH: QVQLQESGGGLVQAGGSLRLSCAASGYIFYSRRMGWYRQAPGKEREFVATIGHGTSTYYADSVKGRFTISRDNAKNTVYLQMNSLKPEDTAVYYCAALPRPHGAGTADARYNLWYWGQGTQVTVSS
Completion: 6.88

Prompt: Please give the measured pEC50 for this binder: RBD9i10 (VHH) VHH: QVQLQESGGGLVQAGGSLRLSCAASGYIFYSRRMGWYRQAPGKEREFVATIGHGASTYYAGSVKGRFTISRDNAKNTVYLQMDSLKPEDTAVYYCAALPRPHGAGTADARYNLWYWGQGTQVTVSS
Completion: 7.82

Prompt: Report pEC50 for RBD8i1 (VHH) VHH: QVQLQESGGGLVQAGGSLRLSCAASGTISGGPWMGWYRQAPGKEREFVAAIARGGNTNYADSVKGRFTISRDNAKNTVYLQMNSLKPEDTAVYYCAARDAVYPYLKYWGQGTQVTVSS please.
Completion: 7.45

Prompt: # get_value(readout='pEC50', item= RBD8 (VHH) VHH: QVQLQESGGGLVQAGGSLRLSCAASGTIFGGPWMGWYRQAPGKEREFVAAIARGGNTNYADSVKGRFTISRDNAKNTVYLQMNSLKPEDTAVYYCAARDAVYPYLKYWGQGTQVTVSS )
Completion: 7.09
